Taken from paper PMC7387483.

Test system: Staphylococcus aureus (NBRC12732)
Type: cell-based
Where no end group is shown, it is not given here.
Task for the reader: assign each of the following sequences its reported MIC, S. aureus (NBRC 12732).

// each listed sequence needs a value for MIC, S. aureus (NBRC 12732)
1. TINKKFRWHGKRKWWLRFVKQ [KH.S1531.4]
2. KLKTWPKNYWRKVWSKKNWRKFVKKFKHW [KH.S921.1]
3. WWLSRRRSSLFYWR [KH.C1.640]
4. SRRRFDFSRRRIYVARRRSLAFAHRRR [KH.C7.94]
5. KGGKFLNFLKKAAKVGAKVGMAALG [KH.S908.1]

["< 3.125 µM", "< 3.125 µM", "< 3.125 µM", "6.25 µM", "< 3.125 µM"]
